method.notes: Brain concentration in mouse at 50 mg/kg, po measured at 1 hr
Assay type: ADME, organism-based
conditions.used: read-out: Drug uptake
reported.property: concentration at 1 h (ng/g)
Respond with the bare value in ng/g.

molecule FC(F)(F)c1cc2c(NC3CCCc4ccccc43)ncnc2[nH]1 (stereo in doubt) , concentration at 1 h observed: 6370

###

method.notes: Plasma concentration in mouse at 50 mg/kg, po measured at 2 hrs
Format: ADME, organism-based
reported.property: concentration at 2 h

molecule FC(F)(F)c1cc2c(NC3CCCc4ccccc43)ncnc2[nH]1 (stereo in doubt) , concentration at 2 h observed: 1420 ng/g

###

method.notes: AUC in mouse at 10 mg/kg, po
Assay type: ADME, organism-based
Design: dose 10 mg/kg
conditions.used: in vivo
reported.property: AUC (µM·h)
Respond with the bare value in µM·h.

compound FC(F)(F)c1cc2c(NC3CCCc4ccccc43)ncnc2[nH]1 (stereo in doubt) , AUC observed: 2.6

###

Test system: HeLa
method.notes: Cytotoxicity against human HeLa MKYP cells assessed as cell death at 25 uM treated with FCCP/oliogmycin and measured DAPI staining method assay relative to control
Assay type: toxicity, cell-based
reported.property: Activity (%)
Respond with the bare value in %.

compound O[C@@H]1Cc2ccccc2[C@@H]1Nc1ncnc2[nH]c(C(F)(F)F)cc12 , Activity observed: 35.6

compound CC[C@@H]1CCc2ccccc2[C@@H]1Nc1ncnc2[nH]c(C(F)(F)F)cc12 , Activity observed: 8.735

compound CO[C@H]1COc2ccccc2[C@@H]1Nc1ncnc2[nH]c(C(F)(F)F)cc12 , Activity observed: 15.865

compound CN(C)[C@H]1CCc2ccccc2[C@@H]1Nc1ncnc2[nH]c(C(F)(F)F)cc12 , Activity observed: 79.29

compound CO[C@H]1COc2ccccc2[C@H]1Nc1ncnc2[nH]c(C(F)(F)F)cc12 , Activity observed: 3.555

Next:
compound CO[C@H]1CCc2ccccc2[C@@H]1Nc1ncnc2[nH]c(C(F)(F)F)cc12 , Activity observed: 7.67

compound C[C@H]1CCc2ccccc2[C@@H]1Nc1ncnc2[nH]c(C(F)(F)F)cc12 , Activity observed: 13.32

compound OC[C@H]1CCc2ccccc2[C@@H]1Nc1ncnc2[nH]c(C(F)(F)F)cc12 , Activity observed: 30.87

compound COc1ccc2c(c1)[C@@H](Nc1ncnc3[nH]c(C(F)(F)F)cc13)CCC2 , Activity observed: 3.18

compound c1ccc2c(c1)CCC[C@H]2Nc1ncnc2[nH]c(C3CC3)cc12 , Activity observed: 14.9

###

System: HeLa
method.notes: Cytotoxicity against human HeLa MKYP cells assessed as cell death at 25 uM treated with FCCP/oliogmycin and measured DAPI staining method assay relative to control
Assay type: toxicity, cell-based
// not fulfilled strictly below 10% in Activity; fulfilled otherwise

Enquiry: Given OC[C@@H]1CCc2ccccc2[C@H]1Nc1ncnc2[nH]c(C(F)(F)F)cc12 , state whether its Activity is at least 10%.
Return: fulfilled

Enquiry: Given O[C@@H]1Cc2ccccc2[C@H]1Nc1ncnc2[nH]c(C(F)(F)F)cc12 , state whether its Activity is at least 10%.
Return: not fulfilled

Enquiry: Given FC(F)(F)c1cc2c(N[C@@H]3CCOc4ccccc43)ncnc2[nH]1 , state whether its Activity is at least 10%.
Return: fulfilled

Next:
Enquiry: Given CO[C@@H]1COc2ccccc2[C@H]1Nc1ncnc2[nH]c(C(F)(F)F)cc12 , state whether its Activity is at least 10%.
Return: fulfilled

Enquiry: Given Fc1ccc2c(c1)CCCC2Nc1ncnc2[nH]c(C(F)(F)F)cc12 (stereo not given) , state whether its Activity is at least 10%.
Return: fulfilled

###

method.notes: Half-life in mouse at 50 mg/kg, po
Format: ADME, organism-based
conditions.used: in vivo
reported.property: half-life
Value and unit, in that order.

compound FC(F)(F)c1cc2c(NC3CCCc4ccccc43)ncnc2[nH]1 (stereo in doubt) , half-life observed: 3.9 h

###

Here the recorded Activity is given for each entry.
Tested on: HeLa
method.notes: Cytotoxicity against human HeLa MKYP cells assessed as cell death at 25 uM and measured DAPI staining method assay relative to control
Assay type: toxicity, cell-based
Respond with the bare value in %.

Record CO[C@@H]1COc2ccccc2[C@@H]1Nc1ncnc2[nH]c(C(F)(F)F)cc12 / HeLa, Activity recorded as 3.4

Record Fc1ccc2c(c1)CCCC2Nc1ncnc2[nH]c(C(F)(F)F)cc12 (stereo not given) / HeLa, Activity recorded as 3.27

Record c1ccc2c(c1)CCC[C@H]2Nc1ncnc2[nH]c(C3CC3)cc12 / HeLa, Activity recorded as 9.32

Record CC[C@@H]1CCc2ccccc2[C@@H]1Nc1ncnc2[nH]c(C(F)(F)F)cc12 / HeLa, Activity recorded as 5.04

Next:
Record FC(F)(F)c1cc2c(N[C@@H]3CCOc4ccccc43)ncnc2[nH]1 / HeLa, Activity recorded as 3.04

###

Test system: HeLa
method.notes: Cytotoxicity against human HeLa MKYP cells assessed as percentage of DAPI-positive cells at 50 uM and measured by DAPI staining method
Format: toxicity, cell-based
Here the recorded Activity is given for each entry.
Respond with the bare value in %.

Solved entries:
compound CCCCNc1ncnc2[nH]c(-c3ccnn3C)cc12 , Activity observed: 94.6

compound OC[C@H](Nc1ncnc2[nH]cnc12)c1ccccc1 , Activity observed: 14.5

compound CC(C)(Nc1ncnc2[nH]c(C(F)(F)F)cc12)c1ccccc1 , Activity observed: 5.6

compound CC(=O)N1CCC(Nc2ncnc3[nH]c(C(F)(F)F)cc23)c2ccccc21 (stereo unspecified) , Activity observed: 6.9

compound CCC(Nc1ncnc2[nH]c(C(F)(F)F)cc12)c1cncnc1 (stereo unspecified) , Activity observed: 15.9

compound CCCCNc1ncnc2c1cc(C(F)(F)F)n2C(C)=O , Activity observed: 36.6

Next:
compound C[C@H](Nc1ncnc2[nH]c(C(F)(F)F)cc12)c1cncnc1 , Activity observed: 23.7

compound c1ccc2c(c1)CC[C@@H]2Nc1ncnc2[nH]cnc12 , Activity observed: 16.2

###

method.notes: Kidney concentration in mouse at 50 mg/kg, po measured at 2 hrs
Type: ADME, organism-based
conditions.used: read-out: Drug uptake
reported.property: concentration at 2 h (ng/g)
Respond with the bare value in ng/g.

compound FC(F)(F)c1cc2c(NC3CCCc4ccccc43)ncnc2[nH]1 (stereo in doubt) , concentration at 2 h observed: 7480

###

method.notes: AUC (infinity) in mouse at 1 mg/kg, iv
Assay type: ADME, organism-based
Set-up: route intravenous, time infinity, dose 1 mg/kg
conditions.used: in vivo
reported.property: AUC(0-inf) (ng·h/mL)
Respond with the bare value in ng·h/mL.

compound FC(F)(F)c1cc2c(NC3CCCc4ccccc43)ncnc2[nH]1 (stereo in doubt) , AUC(0-inf) observed: 487

###

method.notes: Plasma concentration in mouse at 50 mg/kg, po measured at 1 hr
Type: ADME, organism-based
reported.property: concentration at 1 h (ng/g)
Respond with the bare value in ng/g.

molecule FC(F)(F)c1cc2c(NC3CCCc4ccccc43)ncnc2[nH]1 (stereo in doubt) , concentration at 1 h observed: 2080

###

method.notes: AUC in mouse at 50 mg/kg, po
Format: ADME, organism-based
Set-up: dose 50 mg/kg
conditions.used: in vivo
reported.property: AUC (µM·h)
Respond with the bare value in µM·h.

compound FC(F)(F)c1cc2c(NC3CCCc4ccccc43)ncnc2[nH]1 (stereo in doubt) , AUC observed: 35.5

###

Here the recorded Activity is given for each entry.
Test system: HeLa
method.notes: Cytotoxicity against human HeLa MKYP cells assessed as percentage of DAPI-positive cells at 50 uM and measured by DAPI staining method
Format: toxicity, cell-based

Solved entries:
Record CC(Nc1ncnc2[nH]c(C(F)(F)F)cc12)c1ccccc1 (stereo not drawn) / HeLa, Activity recorded as 2.4%

Record Cc1nc2c(N[C@@H](C)c3ccccc3)ncnc2[nH]1 / HeLa, Activity recorded as 31.9%

Record c1ccc2c(c1)OCC[C@H]2Nc1ncnc2[nH]cnc12 / HeLa, Activity recorded as 16%

Next:
Record CC(Nc1ncnc2[nH]cnc12)c1ccccc1 (stereo not drawn) / HeLa, Activity recorded as 18.2%

Record Fc1cccc(CNc2ncnc3[nH]c(C(F)(F)F)cc23)c1Cl / HeLa, Activity recorded as 4.5%

Record CO[C@H]1COc2ccccc2[C@@H]1Nc1ncnc2[nH]c(C(F)(F)F)cc12 / HeLa, Activity recorded as 15.9%

Record O=S1(=O)Cc2ccccc2C(Nc2ncnc3[nH]c(C(F)(F)F)cc23)C1 (stereo not drawn) / HeLa, Activity recorded as 13.2%

Record c1ncc(CNc2ncnc3[nH]c(C4CC4)nc23)cn1 / HeLa, Activity recorded as 7.1%

Record OC[C@H]1CCc2ccccc2[C@@H]1Nc1ncnc2[nH]c(C(F)(F)F)cc12 / HeLa, Activity recorded as 30.9%

Record C[C@H]1CCc2ccccc2[C@@H]1Nc1ncnc2[nH]c(C(F)(F)F)cc12 / HeLa, Activity recorded as 13.3%

Record C[C@@H](Nc1nccc2[nH]cnc12)c1ccccc1 / HeLa, Activity recorded as 7.6%

Record OC1CCc2ccccc2C1Nc1ncnc2[nH]c(C(F)(F)F)cc12 (stereo not drawn) / HeLa, Activity recorded as 12.8%

Record Oc1ccc2c(c1)CCC[C@H]2Nc1ncnc2[nH]c(C(F)(F)F)cc12 / HeLa, Activity recorded as 11%

Record FC(F)(F)c1cc2c(NC3(c4ccccc4)CC3)ncnc2[nH]1 / HeLa, Activity recorded as 80.5%

Record FC(F)(F)c1cc2c(NC3COCc4ccccc43)ncnc2[nH]1 (stereo not drawn) / HeLa, Activity recorded as 42.9%

Record CCCCNc1ncnc2[nH]c(C)cc12 / HeLa, Activity recorded as 15.4%

Record C[C@H]1CCc2ccccc2[C@H]1Nc1ncnc2[nH]c(C(F)(F)F)cc12 / HeLa, Activity recorded as 12%

Record c1ccc2c(c1)OCC2Nc1ncnc2[nH]cnc12 (stereo not drawn) / HeLa, Activity recorded as 21%
